Target: human LPA1 (Homo sapiens, UniProt Q92633)
Construct: expressed in transfected cells; host or cells: Chinese hamster ovary (CHO) cells
Sequence (Q92633 whole entry): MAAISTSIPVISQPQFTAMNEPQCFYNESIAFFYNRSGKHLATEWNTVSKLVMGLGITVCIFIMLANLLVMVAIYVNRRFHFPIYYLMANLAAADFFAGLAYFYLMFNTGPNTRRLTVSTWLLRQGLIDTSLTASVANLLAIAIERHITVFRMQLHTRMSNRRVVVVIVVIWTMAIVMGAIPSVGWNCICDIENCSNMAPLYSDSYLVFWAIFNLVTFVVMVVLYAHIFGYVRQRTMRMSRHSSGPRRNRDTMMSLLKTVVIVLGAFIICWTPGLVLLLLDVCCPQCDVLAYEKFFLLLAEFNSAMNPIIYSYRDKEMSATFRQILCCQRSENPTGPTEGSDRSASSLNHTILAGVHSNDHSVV
Test: LPA1 functional antagonist assay (calcium flux)
Format: cell-based
Settings: CHO cells overexpressing human LPA1; inhibition of calcium flux induced by 10 nM LPA; read-out: hLPA1 IC50
Protocol: The effectiveness of compounds of the present invention as LPA1 inhibitors can be determined in an LPA1 functional antagonist assay as follows: • Chinese hamster ovary cells overexpressing human LPA1 were plated overnight (15,000 cells/well) in poly-D-lysine coated 384-well microplates (Greiner bio-one, Cat #781946) in DMEM/F12 medium (Gibco, Cat #11039). […] IC50 values were determined by fitting data to a 4-parameter logistic equation (GraphPad Prism, San Diego CA). b. […]
pIC50: −log10 of the molar value. Structures can show the parent of a compound that is named as a salt.
RECORDED METRIC: pIC50

1 = Cc1nc(-c2nnn(C)c2Cn2nnc(CC3CCCC3)n2)ccc1O[C@@H]1COC[C@@H](C(=O)O)C1 (racemic) [Example 24, TFA Salt]
2 = Cc1nc(-c2nnn(C)c2CNc2nccc(-c3ccccn3)n2)ccc1OC1CCC2C(C(=O)O)C12 (mixture of isomers)
Prompt: # query: argmin of pIC50 over 1 and 2 Please identify the chosen entry by its label.
Completion: 1

I = CN(C(=O)OCc1c(-c2ccc(O[C@@H]3CC[C@H]4C(C(=O)O)[C@@H]34)cn2)nnn1C)C1CCCC1 (some centres unmarked)
II = Cc1nc(-c2nnn(C)c2COC(=O)N(C)CC2CCC2)ccc1OC1CC2C(C1)C2C(=O)O (centres unmarked)
III = CCCCN(C)C(=O)OCc1c(-c2ccc(O[C@H]3CCO[C@@H](C(=O)O)C3)c(C)n2)nnn1C
IV = Cc1nc(-c2nnn(C)c2COC(=O)N(C)CC2CCC2)ccc1O[C@@H]1C[C@H](C(=O)O)C[C@@H]2C[C@@H]21
V = Cc1nc(-c2nnn(C)c2CNC(=O)OCc2ccccc2)ccc1O[C@@H]1CCC2C(C(=O)O)C21 (some centres unmarked)
Prompt: Kindly order the items shown according to pIC50, from the highest value down. Answer by listing the labels in the order asked for.
Completion: V, IV, I, II, III

1 = Cc1nc(-c2nnn(C)c2CNC(=O)OCC2CCC2)ccc1O[C@@H]1CCC2C(C(=O)O)C21 (mixture of isomers)
2 = CCCN(C)C(=O)OCc1c(-c2ccc(O[C@@H]3CC[C@H]4C(C(=O)O)[C@@H]34)c(C)n2)nnn1C (mixture of isomers)
Prompt: Kindly identify which of 1 and 2 has the larger recorded pIC50 value. In your reply, give the label of the chosen option.
Completion: 1

P = CCCN(C)C(=O)OCc1c(-c2ccc(O[C@H]3C[C@H](C(=O)O)[C@@H]4C[C@@H]43)c(C)n2)nnn1C
Q = Cc1nc(-c2nnn(C)c2CNc2nccc(OC3CC3)n2)ccc1OC1CC[C@H]2C(C(=O)O)[C@@H]12 (mixture of isomers)
R = Cc1nc(-c2nnn(C)c2COC(=O)N(C)CC2CCC2)ccc1O[C@H]1CC2C[C@H]2[C@H](C(=O)O)C1 (single isomer, unassigned)
S = Cc1nc(-c2nnn(C)c2NC(=O)OCC2CC2)ccc1O[C@H]1C[C@H](C(=O)O)[C@@H]2C[C@@H]21
Prompt: In this exercise, place the 4 compounds in ascending sequence of their recorded pIC50. A complete answer lists every label in the requested sequence.
Completion: P, Q, R, S
(P: 6.10, Q: 6.98, R: 7.55, S: 8.84)
